Reference for the values: ChEMBL document CHEMBL3612034

Biological target: Steryl-sulfatase (Homo sapiens, UniProt P08842)
Experiment: Inhibition of human placenta STS
MEASURE_NAME: pIC50
# log scale: pIC50 equals minus log10 of the concentration in mol/L

Query string: pIC50 of NS(=O)(=O)Oc1ccc2c(c1)OC(O)C1=C2CCCCC1 (stereo unspecified) on Steryl-sulfatase (Homo sapiens, UniProt P08842)?
Result string: 8.10

---

Could you please report measured log10 IC50 for the items listed next?
Molecular target: Steryl-sulfatase (Homo sapiens, UniProt P08842)
Sequence (P08842 whole entry): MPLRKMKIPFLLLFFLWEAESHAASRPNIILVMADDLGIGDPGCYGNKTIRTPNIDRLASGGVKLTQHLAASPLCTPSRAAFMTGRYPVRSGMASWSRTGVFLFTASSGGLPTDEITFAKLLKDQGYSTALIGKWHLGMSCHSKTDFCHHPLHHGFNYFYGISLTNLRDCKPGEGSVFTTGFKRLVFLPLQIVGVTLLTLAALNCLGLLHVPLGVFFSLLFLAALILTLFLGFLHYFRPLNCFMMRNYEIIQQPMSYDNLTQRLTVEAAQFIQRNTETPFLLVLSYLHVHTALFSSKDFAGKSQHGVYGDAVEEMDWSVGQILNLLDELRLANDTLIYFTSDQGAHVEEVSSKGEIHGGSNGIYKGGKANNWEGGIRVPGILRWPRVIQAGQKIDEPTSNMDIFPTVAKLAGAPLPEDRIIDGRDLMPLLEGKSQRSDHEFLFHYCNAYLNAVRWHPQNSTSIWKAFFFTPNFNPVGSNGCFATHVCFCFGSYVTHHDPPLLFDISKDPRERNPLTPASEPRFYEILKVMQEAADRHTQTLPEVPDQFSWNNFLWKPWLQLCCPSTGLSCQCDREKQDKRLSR
Experiment: Inhibition of human placenta STS using NPS as substrate after 15 mins by microplate reader analysis
Recall that a logarithmic scale is used here: each number is log10 of IC50 in µM.

Query string: log10 IC50 of `COP(=S)(Oc1ccc2c3c(c(=O)oc2c1)CCC3)Oc1ccc2c3c(c(=O)oc2c1)CCC3` on Steryl-sulfatase (Homo sapiens, UniProt P08842)?
Result string: 1.88

Query string: Also, `O=c1oc2cc(OP(O)(=S)Oc3ccc4c5c(c(=O)oc4c3)CCC5)ccc2c2c1CCC2` please.
Result string: 1.43

Query string: Also, `O=c1oc2cc(OP(=S)(Cl)Oc3ccc4c5c(c(=O)oc4c3)CCCCC5)ccc2c2c1CCCCC2` please.
Result string: 0.85

Query string: Also, `NP(=S)(Oc1ccc2c3c(c(=O)oc2c1)CCCC3)Oc1ccc2c3c(c(=O)oc2c1)CCCC3` please.
Result string: 2.04

Query string: Also, `O=c1oc2cc(OP(O)(=S)Oc3ccc4c5c(c(=O)oc4c3)CCCCC5)ccc2c2c1CCCCC2` please.
Result string: 0.74

Query string: Also, `COP(=S)(Oc1ccc2c3c(c(=O)oc2c1)CCCCC3)Oc1ccc2c3c(c(=O)oc2c1)CCCCC3` please.
Result string: 0.83

Query string: Also, `COP(=S)(Oc1ccc2c3c(c(=O)oc2c1)CCCC3)Oc1ccc2c3c(c(=O)oc2c1)CCCC3` please.
Result string: 1.17

Query string: Also, `O=c1oc2cc(OP(=S)(Cl)Oc3ccc4c5c(c(=O)oc4c3)CCC5)ccc2c2c1CCC2` please.
Result string: 1.53

Query string: Also, `O=c1oc2cc(OP(O)(=S)Oc3ccc4c5c(c(=O)oc4c3)CCCC5)ccc2c2c1CCCC2` please.
Result string: -0.07
